B1: Pistol ribozyme (parent)
chain: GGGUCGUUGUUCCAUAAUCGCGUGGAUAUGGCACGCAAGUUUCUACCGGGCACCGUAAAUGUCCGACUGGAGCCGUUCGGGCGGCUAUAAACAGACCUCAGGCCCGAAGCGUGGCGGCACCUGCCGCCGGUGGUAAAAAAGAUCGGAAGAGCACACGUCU

- Variants of: B1
- ASSAY_PROTOCOL: aptazyme ON/OFF ratio, guanine; higher = stronger switching; co-transcriptional cleavage with and without guanine
Property: aptazyme ON/OFF ratio; scope: individual variants
METRIC_NAME: aptazyme ON/OFF ratio

U7G U8G G9A U10A U11C C12G C13A    1.13
U7G U8A G9U U11A C12U C13U    1.07
U7A U8G U10G U11A C12U    1.33
U7C U8G U10C U11G C12U C13A    1.24
U7C U8G U10A U11A C12G C13U    1.17
U7C G9A U11C C12A C13A    1.16
U8G G9U U10A U11A C13G    1.09
U7C U8A U10A U11C C12U C13G    1.04
U8A G9C U11C C13U    1.06
U7A U8G G9U U10G C12A C13G    1.14
U8G G9U U10C C12G C13G    1.25
U7G U11A C12G C13G    1.11
U8A G9U U11G C13A    1.14
U8G G9A U10G C12A C13U    1.45
U7G U8C G9C U10C U11G C13G    1.14
U7C U8G G9A U11G C12G    1.23
U7G U8C G9A U10A C12A    1.15
U7C U8G G9C U10A C13U    1.15
U8G G9A U10A U11C C12A C13U    1.32
U7C G9U U10C C12A C13G    1.09
U7A U8C G9U U10G U11C C12A C13U    1.26
U8G G9C U10G U11C C13G    1.02
